pIC50: −log10 of the molar value.
Reported pIC50 against High affinity nerve growth factor receptor (Homo sapiens), gathered from multiple publications, appears below.

>  <smiles.representation>
O=C(Nc1ccc2[nH]ncc2c1)c1coc2c1C(=O)NCC2

>  <qual>
=

>  <pIC50>
6.96

$$$$
>  <smiles.representation>
COCCN1C[C@@H](NC(=O)Nc2c(Br)c(OC[C@@H](C)O)nn2-c2ccccc2)[C@H](c2cc(F)cc(F)c2)C1

>  <qual>
>

>  <pIC50>
7.00

$$$$
>  <smiles.representation>
CCOc1cc2nccc(Oc3ccc(NC(=O)c4cccn(-c5ccc(F)cc5)c4=O)c(Cl)c3)c2c2c1OCCO2

>  <qual>
>

>  <pIC50>
7.30

$$$$
>  <smiles.representation>
COc1ccc(COc2ccc(Cn3c(N)nc4cc(-c5cccnc5)cnc43)cc2OC)cn1

>  <qual>
=

>  <pIC50>
8.30

$$$$

----------
Reported IC50 against High affinity nerve growth factor receptor (Homo sapiens, UniProt P04629), gathered from multiple publications, appears below.
value.kind: IC50

>  <compound>
Cc1cnc(C2CCOCC2)c(NC(=O)N[C@@H]2c3ccccc3C(C)(C)C[C@H]2O)c1 (racemic)

>  <value.kind>
IC50

>  <measured.value>
≤ 50 nM

$$$$
>  <compound>
Cc1nc2ccc(NC(=O)c3coc4c3C(=O)N(C)CC4)cc2s1

>  <value.kind>
IC50

>  <measured.value>
169 nM

$$$$
>  <compound>
COCCN1C[C@@H](NC(=O)Nc2c(C)c(OS(=O)(=O)C(F)(F)F)nn2-c2ccccc2)[C@H](c2ccc(F)c(F)c2)C1

>  <value.kind>
IC50

>  <measured.value>
< 100 nM

$$$$
>  <compound>
CCOc1ccn(-c2ccc(F)cc2)c(=O)c1C(=O)Nc1ccc(Oc2ccnc3cc(OCC(C)C)c4c(c23)OCCO4)c(F)c1

>  <value.kind>
IC50

>  <measured.value>
50 to 500 nM

$$$$
>  <compound>
COCCN1C[C@@H](NC(=O)Nc2c(C)c(-c3cnn(C)c3)nn2-c2ccccc2)[C@H](c2cnn(C)c2)C1 (relative stereo)

>  <value.kind>
IC50

>  <measured.value>
100 to 1000 nM

$$$$
>  <compound>
N#CCN1C[C@@H](NC(=O)Nc2c3c(nn2-c2ccccc2)CCC3)[C@H](c2ccc(F)c(F)c2)C1

>  <value.kind>
IC50

>  <measured.value>
< 100 nM

$$$$
>  <compound>
Cc1c(C#Cc2cnc3ccc(N4CCC(O)CC4)nn23)cccc1C(=O)Nc1cc(Cl)cc(C(F)(F)F)c1

>  <value.kind>
IC50

>  <measured.value>
< 10 nM

$$$$

----------
Reported IC50 against High affinity nerve growth factor receptor (Homo sapiens), gathered from multiple publications, appears below.

>  <smiles.representation>
O=C(Nc1c2c(nn1-c1ccccc1)CCC2)N[C@@H]1CN(CC(F)(F)F)C[C@H]1c1cccc(F)c1

>  <IC50>
100 to 1000 nM

$$$$
>  <smiles.representation>
COCCN1C[C@@H](NC(=O)Nc2cc(-c3ccccc3)nn2C)[C@H](c2cc(F)cc(F)c2)C1

>  <IC50>
< 100 nM

$$$$
>  <smiles.representation>
Cc1n[nH]c2cc(-c3ccc(C#N)c(N4CCN(CC(F)(F)F)CC4)c3)cc(OC3CCOCC3)c12

>  <IC50>
29.1 nM

$$$$
>  <smiles.representation>
Fc1cc(F)cc(Cc2ccc3[nH]nc(/C=C/c4cccs4)c3c2)c1

>  <IC50>
21.8 nM

$$$$
>  <smiles.representation>
COCCN1C[C@@H](NC(=O)Nc2c3c(nn2-c2ccccc2)COC3)[C@H](c2cc(F)cc(F)c2)C1

>  <IC50>
< 100 nM

$$$$
>  <smiles.representation>
C[C@@H](Nc1ccc2[nH]nc(/C=C/C(=O)N3CC[C@H](O)C3)c2c1)c1cc(F)cc(F)c1

>  <IC50>
3 nM

$$$$
>  <smiles.representation>
COCCN1C[C@@H](NC(=O)Nc2c(C)c(OC[C@@H](C)O)nn2-c2ccccc2)[C@H](c2cc(F)cc(F)c2)C1

>  <IC50>
< 100 nM

$$$$
